Listed here are binders together with their documented pKd.
Target: Human His-tagged RBP4 (residues 19-201), soluble (human, UniProt P02753 19-201)
Experiment: SPR, -A1120; mean ± S.D., n=4
Experimental: The antigen (RBP4) was coated onto a CM5 chip (GE Healthcare) and incubated with various concentrations of lipocalin-fold binding interaction partner solution in HBS-EP (GE Healthcare), followed by a dissociation phase in HBS-EP. […] Finally, K_d values (dissociation constants) were obtained by steady-state analysis.
Please report pKd as the negative decimal logarithm of the molar concentration, giving only the number.

Recorded pKd of RS3, rcSso7d-based RBP4 binding interaction partner, soluble protein (designed binder, Expressed in E. coli as His6-SUMO fusion; Monomeric by SEC) ATVKLTYQGEEKQVDISKIKRVARYGQNIYFSYDEGGGAYDYGAVSEKDAPKELLQMLEKQ , please.
5.31

Next:
Recorded pKd of RS5, rcSso7d-based RBP4 binding interaction partner, soluble protein (designed binder, Expressed in E. coli as His6-SUMO fusion; Monomeric by SEC) ATVKFTYQGEEKQVDISKIKRVARYGQGIYFDYGEGGGAWGYGSVSEEDAPKELLQMLEKQ , please.
4.96
